test system: MS2 coat protein; experiment: apparent KD of MS2 coat protein; higher = weaker reporter binding; conditions: Eterna round: R107; input ligand: theophylline 2 mM
Record true whenever apparent KD of MS2 coat protein is at 0.05 µM or higher; record false when lower.

query_sequence="AGUUAAAUAUGUUAAUAACUAUUUACUGAAGGAGCGUGUUUUGACACAGGUAGGUCGCAGUGACAUGAGGAUCACCCAUGUCGUA [#08 Same State - Arginine A]" label_value=false
query_sequence="AGAGCAUUGACGGCCGCCACUCAUGUCACAUGAGGAUCACCCAUGUGAUGGGUGAUCGCCCGGUUGAGGACCGGGUCAAUGCUCA [Omei Tryp SS B v2]" label_value=true
query_sequence="GCUGCAGCUACGGCCGCCACUGUUACGUGAGACAUGAGGAUCACCCAUGUUGAUGUUUUACGGUAUAGGACCGGGUAGUUGUAGU [E 1.0]" label_value=false
query_sequence="CCUAUGCAGUCGGCCGCCACUGAAAUAAAUUAUAUUACCUCAGAAACAUGAGGAUCACCCAUGUACAGGACCGGGACUGUAUAGG [Ex Tryptophan B 15]" label_value=false
query_sequence="CGUAUUACGAAAGUAGUACGUAGUGUUCGACGAGGACCGGUACGGCCGCCACUCGGACAUGAGGAUCACCCAUGUAGCGAAAGCU [Tryptophan A 24]" label_value=true
query_sequence="UAUAUAUACUCGGCCGCCACUGAGAGAGUCAUGUAAACAUGAGGAUCACCCAUGUAAUAUAUAUACAGGACCGGGAGUAUAUGAA [4.B]" label_value=false
query_sequence="UGCAUGAUCUGAAGGAGCGUGUAUGAUGAUAACAUGAGGAUCACCCAUGUCGAGACGGUAACACAGGUAGGUCGCAGAUCAUGCU [Arg B SS t4]" label_value=false
query_sequence=GGGUACAUCGCGGCCGCCACUCGUGUAAAUACAUGAGGAUCACCCAUGUCGAUGGAGACAUCGGAGAGGACCGGGUGAUGUACCG label_value=true
query_sequence="CUGGCAGGAUUCUCAGCUGUCAGGGCUGAUACCAGCCACGAAAGUGGCCCUUGGCAGCAGCAAACAUGAGGAUCACCCAUGUAAU [(T)''-(M)'-(T)'-(Theo)-(Ms2)_Design1]" label_value=false
query_sequence="GGGCGCUAUCCCGCGAGGGAUAGCGUUCUUCGAGGACCGGUACGGCCGCCACUCGAACGAGUGGUGACAUGAGGAUCACCCAUGU [Paa]" label_value=true
query_sequence="ACAUGAGGAUCACCCAUGUACAUGAGGGAAGGAGCGGUACAUGAGCCAGGUAGGUCGCCCAUGAGCAUCAGGCAUGUACAUCAGC [kokmmullin]" label_value=true
query_sequence="CACAUGAGGAUCACCCAUGUCUGAACUGAAGGAGCGCUAAACAAGGCAGGUAGGUCGCGGAAUCCCGGGUGCAUAUGCACCCGGG [9.aA]" label_value=false

---

system: MS2 coat protein; assay: apparent KD of MS2 coat protein; designed switch direction (-1 OFF switch, 1 ON switch): -1; higher = weaker reporter binding; conditions: input ligand: none
Record Yes whenever apparent KD of MS2 coat protein is at 40 nM or higher; record No when lower.

query_sequence="GUAGAGUCAGGAUAUACGAGAUCGAAAGAUCAAAGAUCCUUACAUGAGGAUCACCCAUGUAGAAGGGACUCUAC [Eli x2 4.14] (Eterna round: R97, puzzle: Exclusion 2)" label_value=No
query_sequence="UAUUAACAAGCGAGAUCCCACAUGAGGAUCACCCAUGUGCUCGUCUUAUAAGGUACUGUGACGAUAGUCACGGUACC [Mat - Sensor, turn-off var - Eli Mod - D3] (Eterna round: R97, puzzle: Sensor, turn-off variant 1)" label_value=No
query_sequence="ACAUGAGGAUCACCCAUGUCCGGCUGGUCUGUCUCGGCUGUCGAGGAUAUAGCUCGGUAUCCGCGCUAGAAGGCGGGAGCCGGC [Aenatbe mod 90] (Eterna round: R96, puzzle: Exclusion NG 3)" label_value=Yes
query_sequence="AGGAUGUUAGGAUAUGCUAGAGUACUACAGAGUACUACGGAGCAGAAGGAACAUGAGGAUCACCCAUGUCACCU [Exclusion 4 R4 S1] (Eterna round: R97, puzzle: Exclusion 4)" label_value=No
query_sequence="CAAUACAAGCGAAGAUCCUACAUGAGGAUCACCCAUGUGCUCGUCUUAAAAGGUACUGAGACGAAAGUCUCGGUACC [Mat - Sensor, turn-off var - Eli Mod - D99] (Eterna round: R97, puzzle: Sensor, turn-off variant 1)" label_value=Yes
